target: Recombinant human HSD17B13 enzyme (Homo sapiens); test: HSD17b13 NAD(P)H-Glo biochemical assay; settings: 50 uM estradiol, 1 mM NAD+, NAD(P)H-Glo luminescence; read-out: HSD17β13 IC50
Sequence (Q7Z5P4 20-300): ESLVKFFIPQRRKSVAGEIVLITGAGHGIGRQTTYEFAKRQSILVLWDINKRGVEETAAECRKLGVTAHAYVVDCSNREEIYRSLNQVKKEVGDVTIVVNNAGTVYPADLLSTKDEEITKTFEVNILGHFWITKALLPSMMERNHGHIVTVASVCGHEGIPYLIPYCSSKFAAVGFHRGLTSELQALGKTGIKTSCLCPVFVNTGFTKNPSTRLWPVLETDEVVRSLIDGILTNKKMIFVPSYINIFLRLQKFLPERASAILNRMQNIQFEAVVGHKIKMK
compounds and their reported IC50

Examples from the recorded data:
| COMPOUND | SYSTEM_NAME | IC50 |
| --- | --- | --- |
| Cn1nc(-c2cc(C(F)(F)F)c(F)c(O)c2F)c2cnc(N3CCO[C@@H](CO)C3)nc21 [Compound 18.131] | Recombinant human HSD17B13 enzyme (Homo sapiens) | 100 to 1000 nM |
| O=C(NC12CC(C1)C2)c1ccc2oc(-c3cc(O)cc(C(F)(F)F)c3)nc2c1 [Compound 2.01] | Recombinant human HSD17B13 enzyme (Homo sapiens) | < 100 nM |
| Cn1nc(-c2cc(C(F)(F)F)c(F)c(O)c2F)c2cnc(N3CCN(S(C)(=O)=O)[C@@H](c4ccccc4)C3)nc21 [Compound 18.109] | Recombinant human HSD17B13 enzyme (Homo sapiens) | < 100 nM |
| C[C@@H]1CN(c2cc3c(cn2)c(-c2cc(C(F)(F)F)c(F)c(O)c2F)nn3C)CCN1C(=O)Nc1ccccc1 [Compound 21.07] | Recombinant human HSD17B13 enzyme (Homo sapiens) | < 100 nM |
| Cn1nc(-c2cc(C(F)(F)F)c(F)c(O)c2F)c2cnc(N3CCOC4(CCC4)C3)nc21 [Compound 18] | Recombinant human HSD17B13 enzyme (Homo sapiens) | < 100 nM |
| Cn1nc(-c2cc(C(F)(F)F)c(F)c(O)c2F)c2cnc(N3CC4(CCOCC4)C3)cc21 [Compound 9.10] | Recombinant human HSD17B13 enzyme (Homo sapiens) | < 100 nM |

We next turn to a different compound, shown below.
Exam item: Output reported IC50 of the compound CC(=O)N1CCC(N(C)c2cc3c(cn2)c(-c2cc(C(F)(F)F)c(F)c(O)c2F)nn3C)CC1 [Compound 9.66] on Recombinant human HSD17B13 enzyme (Homo sapiens).
Marked response: < 100 nM
